Hi there, I'd appreciate the recorded Ki for every entry that follows.
target: biotinylated r(G4C2)8 RNA and hnRNP H1-His6; experiment: TR-FRET hnRNP H binding assay; conditions: Table F
One number for each entry, in µM.

See these solved cases before continuing.
[
  {
    "Molecule": "Cc1c2ccncc2cc2c3cc(OC[C@H](C)N)ccc3n(C)c12 [Compound 218]",
    "Reported result": 0.8
  },
  {
    "Molecule": "Cc1c2ccncc2cc2c3cc(OCCN4CCS(=O)(=O)CC4)ccc3n(C)c12 [Compound 217]",
    "Reported result": 8.5
  },
  {
    "Molecule": "CN(C)CCOc1ccc2c(c1)c1cc3ncccc3cc1n2C [Compound 226]",
    "Reported result": 13
  }
]

Ask | Tell me Ki of Cn1c2ccc(OCC(=N)N)cc2c2cc3cnccc3cc21 [Compound 245] when tested on biotinylated r(G4C2)8 RNA and hnRNP H1-His6.
Reply | 0.8

###

system: RAN translation of (G4C2)66-No ATG-GFP in HEK293T cells; experiment: Cell-based assay of RAN translation inhibition (GFP/mCherry reporter); details: Homo sapiens, HEK-293T, 24 h, Table D; HEK293T, 24 h treatment; read-out: RANT IC25
Label 0 if IC25 falls below 1 µM; label 1 in every other case.

These recorded examples may help you get a feel for the data.
[
  {
    "Compound": "Cc1c2ccncc2cc2c3cc(OCC(=O)N4CCN(C)CC4)ccc3n(C)c12",
    "Target or test system": "RAN translation of (G4C2)66-No ATG-GFP in HEK293T cells",
    "Assigned label": 1
  },
  {
    "Compound": "Cc1c2ccncc2cc2c3cc(C(=O)NCCN)ccc3n(C)c12",
    "Target or test system": "RAN translation of (G4C2)66-No ATG-GFP in HEK293T cells",
    "Assigned label": 1
  },
  {
    "Compound": "COc1ccc2c3cc4c(C(=O)N[C@H](C)CN(C)C)nccc4c(C)c3n(C)c2c1",
    "Target or test system": "RAN translation of (G4C2)66-No ATG-GFP in HEK293T cells",
    "Assigned label": 1
  },
  {
    "Compound": "Cc1c2ccncc2cc2c3cc(OC[C@H]4CCCN4C)ccc3n(C)c12",
    "Target or test system": "RAN translation of (G4C2)66-No ATG-GFP in HEK293T cells",
    "Assigned label": 1
  },
  {
    "Compound": "Cc1c2ccncc2cc2c3cc(OCc4nccn4C)ccc3n(C)c12",
    "Target or test system": "RAN translation of (G4C2)66-No ATG-GFP in HEK293T cells",
    "Assigned label": 1
  }
]

Ask | Does the compound Cc1c2ccncc2cc2c3cc(OCCCN4CCN(C)CC4)ccc3n(C)c12 have recorded IC25 that is 1 µM or more?
Reply | 1

Ask | Does the compound CCn1c2ccc(OCCN3CCOCC3)cc2c2cc3cnccc3c(C)c21 have recorded IC25 that is 1 µM or more?
Reply | 1

Ask | Does the compound CCc1nccc2c(C)c3c(cc12)c1cc(OC)ccc1n3C [Example 80a] have recorded IC25 that is 1 µM or more?
Reply | 1

Ask | Does the compound Cc1c2ccncc2cc2c3cc(OCC(=O)N(C)C)ccc3n(C)c12 have recorded IC25 that is 1 µM or more?
Reply | 1

###

Hi there, I'd appreciate the recorded pKi for every entry that follows.
target: biotinylated r(G4C2)8 RNA and hnRNP H1-His6; experiment: TR-FRET hnRNP H binding assay; conditions: Table D
Numbers only, as −log10 of the molar value.

[
  {
    "Compound": "Cc1c2ccncc2cc2c3cc(OCCCN4CCCC4)ccc3n(C)c12 [Compound 9]",
    "Reported result": 5.00
  }
]

Parameter requested: pKi. Apply to each item below.
1. Cc1c2ccncc2cc2c3cc(C(N)=O)ccc3n(C)c12 [Example 69]
2. Cc1c2ccncc2cc2c3cc(OCCCN4CCOCC4)ccc3n(C)c12 [Compound 8]
3. Cc1c2ccncc2cc2c3cc(OCCCN4CCN(C)CC4)ccc3n(C)c12 [Compound 23]
4. Cc1c2ccncc2cc2c3c(OCCN4CCOCC4)cccc3n(C)c12 [Example 54]
5. COc1ccc2c(c1)c1cc3c(C4CCCO4)nccc3c(C)c1n2C (stereo not drawn) [Example 80b]

Reply |
[4.92, 4.96, 5.03, 4.89, 5.04]

###

target: Biotin-labeled RNA (target RNA); test: BLI affinity measurement (ForteBio Octet RED384); details: Table G
Classify: 1 when Kd is strictly less than 100 nM; -1 when Kd is not.

[
  {
    "Compound": "CN[C@@H](C)COc1ccc2c(c1)c1cc3cnccc3c(C)c1n2C [Compound 276]",
    "Assigned label": 1
  },
  {
    "Compound": "Cc1c2ccncc2cc2c3cc(C(=O)N[C@H](C)CN(C)C)ccc3n(C)c12 [Compound 286]",
    "Assigned label": -1
  },
  {
    "Compound": "CCCN[C@@H](C)COc1ccc2c(c1)c1cc3cnccc3c(C)c1n2C [Compound 277]",
    "Assigned label": 1
  }
]

Ask | Problem: For the compound Cc1c2ccncc2cc2c3cc(OC[C@H](C)NCC(F)F)ccc3n(C)c12 [Compound 279] , is Kd under 100 nM?
Reply | -1

Ask | Problem: For the compound Cc1c2ccncc2cc2c3cc(Oc4ccnc(N)c4)ccc3n(C)c12 [Compound 303] , is Kd under 100 nM?
Reply | -1

Ask | Problem: For the compound Cc1c2ccnc(C(=O)N[C@H](C)CN(C)C)c2cc2c3cc(OC[C@H](C)N)ccc3n(C)c12 [Compound 271] , is Kd under 100 nM?
Reply | -1

Ask | Problem: For the compound COc1ccc2c(c1)c1cc3cnccc3c(C)c1n2CCN1CCOCC1 [Compound 320] , is Kd under 100 nM?
Reply | -1

###

Hi there, I'd appreciate the recorded Kd for every entry that follows.
biological target: Biotin-labeled RNA (target RNA); assay: BLI affinity measurement (ForteBio Octet RED384); settings: Table G
One number for each entry, in nM.

See these solved cases before continuing.
[
  {
    "Compound": "Cc1c2ccncc2cc2c3cc(OCC(N)=O)cc(F)c3n(C)c12 [Compound 264]",
    "Recorded endpoint": "Kd",
    "Reported result": 180
  },
  {
    "Compound": "Cc1c2ccnc(C(=O)NCCN)c2cc2c3cc(F)ccc3n(C)c12 [Compound 308]",
    "Recorded endpoint": "Kd",
    "Reported result": 560
  },
  {
    "Compound": "c1cc2cc3[nH]c4ccc(OCC5=NCCN5)cc4c3cc2cn1 [Compound 262]",
    "Recorded endpoint": "Kd",
    "Reported result": 5200
  },
  {
    "Compound": "Cc1c2ccncc2cc2c3cc(C(=O)N[C@@H](C)CN(C)C)ccc3n(C)c12 [Compound 295]",
    "Recorded endpoint": "Kd",
    "Reported result": 350
  }
]

Now consider the entry below.
Ask | Please give measured Kd of the following entry: Cc1c2ccncc2cc2c3ccccc3n(CCN3CCOCC3)c12 [Compound 319]
Reply | 7800

###

target: biotinylated r(G4C2)8 RNA and hnRNP H1-His6; assay: TR-FRET hnRNP H binding assay; details: Table D
Recorded endpoint: pKi
Numbers only, as −log10 of the molar value.

See these solved cases before continuing.
[
  {
    "Structure smiles": "COc1ccc2c(c1)c1cc3c(C(=O)NCCN(C)C)nccc3c(C)c1n2C",
    "pKi": 5.09
  },
  {
    "Structure smiles": "Cc1c2ccncc2cc2c3cc(OC[C@@H]4CCCN4C)ccc3n(C)c12",
    "pKi": 6.08
  },
  {
    "Structure smiles": "Cc1c2ccnc(C(=O)N[C@H](C)CN(C)C)c2cc2c3cc(OCCCN4CCN(C)CC4)ccc3n(C)c12",
    "pKi": 5.23
  },
  {
    "Structure smiles": "CCN(CC)CCOc1ccc2c(c1)c1cc3cnccc3c(C)c1n2C",
    "pKi": 5.28
  }
]

Parameter requested: pKi. Apply to each item below.
1. Cc1c2ccncc2cc2c3cc(C(=O)NCCN(C)C)ccc3n(C)c12
2. Cc1c2ccncc2cc2c3cc(OCCN)ccc3n(C)c12

Reply |
[5.40, 5.02]

Parameter requested: pKi. Apply to each item below.
1. Cc1c2ccncc2cc2c3cc(C(=O)N(C)C)ccc3n(C)c12
2. Cc1c2ccncc2cc2c3ccc(OCCN(C)C)cc3n(C)c12
3. Cn1c2ccc(OCCN3CCOCC3)cc2c2cc3cnccc3cc21

Reply |
[3.97, 5.22, 5.34]

Parameter requested: pKi. Apply to each item below.
1. Cc1c2ccncc2cc2c3cc(C(=O)N4CCN(C)CC4)ccc3n(C)c12
2. CNC(=O)c1ccc2c(c1)c1cc3cnccc3c(C)c1n2C
3. Cc1c2ccncc2cc2c3cc(OC[C@H]4CCCN4)ccc3n(C)c12
4. Cc1c2ccncc2cc2c3cc(OCC(=O)NCCN(C)C)ccc3n(C)c12

Reply |
1: 5.38; 2: 4.44; 3: 6.12; 4: 5.89
